System: Candida albicans
Assay: Growth inhibition of Candida albicans ATCC 90028 at 2 ug/ml incubated for 18 hrs at 35 degC by broth microdilution method relative to control
Format: functional
Settings: ATCC 90028, 18 h, read-out: GI
Could you please report measured inhibition of growth at 2 µg/mL for the items listed next?
Provide only the numeric value, understood in %.

Lookup result for CC(Cn1cnc2c1c(=O)n(C)c(=O)n2C)OC(=O)N1c2ccccc2C=Cc2ccccc21 (centres undefined) ; measured inhibition of growth at 2 µg/mL: 99.8

Lookup result for CC(Cn1cnc2c1c(=O)n(C)c(=O)n2C)OC(=O)CC(=O)c1ccccc1 (centres undefined) ; measured inhibition of growth at 2 µg/mL: 99.3

Lookup result for CC(CN1c2ccccc2Sc2ccccc21)OC(=O)OC(C)Cn1cnc2c1c(=O)n(C)c(=O)n2C (centres undefined) ; measured inhibition of growth at 2 µg/mL: 100

Lookup result for COC(C(=O)OC(C)Cn1cnc2c1c(=O)n(C)c(=O)n2C)c1cccc2ccccc12 (centres undefined) ; measured inhibition of growth at 2 µg/mL: 99.9
